Where do these numbers come from? They come from paper PMC3503826.

Each entry below carries its reported Ki.
- subject_of_test: UniProtKB P29274
- Sequence (P29274 whole entry): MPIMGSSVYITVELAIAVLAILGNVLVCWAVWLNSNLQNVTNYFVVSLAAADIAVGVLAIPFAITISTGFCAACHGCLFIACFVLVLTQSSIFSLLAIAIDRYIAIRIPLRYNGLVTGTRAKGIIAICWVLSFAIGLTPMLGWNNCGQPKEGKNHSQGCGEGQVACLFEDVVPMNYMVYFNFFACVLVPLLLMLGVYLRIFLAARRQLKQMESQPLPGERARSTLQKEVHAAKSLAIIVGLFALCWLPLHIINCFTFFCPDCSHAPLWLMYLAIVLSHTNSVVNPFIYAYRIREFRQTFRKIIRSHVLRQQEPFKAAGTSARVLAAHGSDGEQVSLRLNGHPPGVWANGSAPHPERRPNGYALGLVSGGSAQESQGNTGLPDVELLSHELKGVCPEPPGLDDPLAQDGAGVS
Write the number in nM without appending the unit.

Sample answers from the record:
## Task Recorded Ki for C=CCOc1ccccc1/C=N/Nc1nc2ccccc2c(=O)n1C with UniProtKB P29274, please?
## Result 1450

## Task For UniProtKB P29274, provide Ki of COc1ccc(OCC(=O)Nc2nc(-c3ccccn3)cs2)cc1 please.
## Result 3650

## Task Notebook entry, UniProtKB P29274 assay: Ki of N#Cc1cccc(C(=O)Nc2nc(-c3ccccn3)cs2)c1 = ?
## Result 3560

Continuing:
## Task State its Ki on UniProtKB P29274: Cn1nnnc1SCC(=O)Nc1nc(-c2cccs2)cs1
## Result 2130

## Task Return Ki measured with UniProtKB P29274 given this compound: Cc1cc(C)c2c(=O)[nH]c(SCC(=O)Nc3cc(C)on3)nc2n1
## Result 1370
